# Tested on: erythropoietin (EPO)
# TEST: EPO expression in Kelly neuroblastoma cells
# Type: cell-based
PARAMETER MEASURED: EPO Fold Increase

Need EPO Fold Increase for each of these molecules.
1. O=C(O)CNC(=O)c1ncc2cc(Oc3ccc(F)cc3)ccc2c1O [Compound G]
2. Cc1nc2ccc(Oc3ccc4c(C#N)nc(C(=O)NCC(=O)O)c(O)c4c3)cc2o1 [Compound AQ]
3. Cc1nc2ccc(Oc3ccc4c(O)c(C(=O)NCC(=O)O)ncc4c3)cc2o1 [Compound N]
4. O=C(O)CNC(=O)c1nc2cc(Cl)ccc2c(I)c1O [Compound T]

// result
1. 5.5
2. 4.34
3. 14.52
4. 15.83

###

Can you tell me VEGF for the items I'm about to list?
# System: VEGF
# TEST: Plasma VEGF in mice after intravenous injection
# Type: in vivo, Swiss Webster mice
# TEST SETTINGS: mouse plasma, 20 mg/kg i.v., four hours after injection
Numbers only, in pg/mL.

Consider the reported VEGF for these compounds:
N#Cc1nc(C(=O)NCC(=O)O)c(O)c2cc(Oc3ccc4c(c3)OCO4)ccc12 39
N#Cc1nc(C(=O)NCC(=O)O)c(O)c2cccc(Oc3ccccc3)c12 40
O=C(O)CNC(=O)c1nc(Cl)c2ccsc2c1O 13

Need VEGF for each of these compounds.
1. O=C(O)CNC(=O)c1ncc2cc(Oc3ccccc3)sc2c1O
2. N#Cc1nc(C(=O)NCC(=O)O)c(O)c2ccc(Cc3ccccc3)cc12

// result
51
29

###

# Tested on: erythropoietin (EPO)
# TEST: EPO expression in Kelly neuroblastoma cells
# Type: cell-based
Can you tell me EPO Fold Increase for the items I'm about to list?
Give bare numbers.

N#Cc1nc(C(=O)NCC(=O)O)c(O)c2cc(Oc3ccc4c(c3)CCO4)ccc12 19.55
O=C(O)CNC(=O)c1nc2cc(Cl)ccc2c(-c2cccc(C(F)(F)F)c2)c1O 4.16
N#Cc1nc(C(=O)NCC(=O)O)c(O)c2c(Oc3ccccc3)cccc12 6.25

// switching to the query compound
// query Report value only: EPO Fold Increase, erythropoietin (EPO), O=Cc1nc(C(=O)NCC(=O)O)c(O)c2cc(Oc3ccccc3)ccc12
// result 2.23

###

# Tested on: erythropoietin
# TEST: Plasma EPO in mice after intravenous injection
# Format: in vivo, Swiss Webster mice
# TEST SETTINGS: mouse plasma, 20 mg/kg i.v., four hours after injection; mouse EPO ELISA kit (**)
PARAMETER MEASURED: EPO

Consider the reported EPO for these compounds:
O=C(O)CNC(=O)c1nc2cc(-c3ccc(Cl)cc3)sc2cc1O 17.1 pg/mL
O=Cc1nc(C(=O)NCC(=O)O)c(O)c2cc(Oc3ccccc3)ccc12 2763 pg/mL
O=C(O)CNC(=O)c1ncc2cc(Oc3ccc4c(c3)OCO4)ccc2c1O 157 pg/mL
O=C(O)CNC(=O)c1ncc2cc(Oc3ccccc3)sc2c1O 303 pg/mL

// switching to the query compound
// query Please supply the value of reported EPO for the item O=C(O)CNC(=O)c1ncc2cc(Oc3ccc4c(c3)CCO4)ccc2c1O
// result 183 pg/mL

###

# System: erythropoietin
# TEST: Plasma EPO in mice after intravenous injection
# Type: in vivo, Swiss Webster mice
# TEST SETTINGS: mouse plasma, 20 mg/kg i.v., four hours after injection; mouse EPO ELISA kit (**)
Threshold 500 pg/mL: EPO strictly smaller gives met, otherwise not met.

MOLECULE	ANSWER LABEL
C#Cc1nc(C(=O)NCC(=O)O)c(O)c2ccsc12 [Compound M]	met

// query EPO strictly < 500 pg/mL for this molecule? N#Cc1nc(C(=O)NCC(=O)O)c(O)c2ccc(Oc3ccc(F)cc3)cc12 [Compound R]
// result not met

// query EPO strictly < 500 pg/mL for this molecule? CCc1c(O)c(C(=O)NCC(=O)O)nc2cc(Cl)ccc12 [Compound AT]
// result met

// query EPO strictly < 500 pg/mL for this molecule? N#Cc1nc(C(=O)NCC(=O)O)c(O)c2cc(Oc3ccc4c(c3)CCO4)ccc12 [Compound AO]
// result not met

// query EPO strictly < 500 pg/mL for this molecule? O=C(O)CNC(=O)c1nc(Br)c2ccsc2c1O [Compound AE]
// result not met

// query EPO strictly < 500 pg/mL for this molecule? O=C(O)CNC(=O)c1nc(Br)c2cc(Br)sc2c1O [Compound AD]
// result not met

// query EPO strictly < 500 pg/mL for this molecule? N#Cc1nc(C(=O)NCC(=O)O)c(O)c2ccc(Cl)cc12 [Compound S]
// result met

// query EPO strictly < 500 pg/mL for this molecule? Cc1nc2ccc(Oc3ccc4c(O)c(C(=O)NCC(=O)O)nc(C)c4c3)cc2o1 [Compound AF]
// result met

// query EPO strictly < 500 pg/mL for this molecule? Cc1nc2ccc(Oc3ccc4c(C#N)nc(C(=O)NCC(=O)O)c(O)c4c3)cc2o1 [Compound AQ]
// result not met

// query EPO strictly < 500 pg/mL for this molecule? N#Cc1nc(C(=O)NCC(=O)O)c(O)c2cc(Oc3ccc4c(c3)OCO4)ccc12 [Compound AN]
// result not met

// query EPO strictly < 500 pg/mL for this molecule? N#Cc1nc(C(=O)NCC(=O)O)c(O)c2sccc12 [Compound AH]
// result not met

// query EPO strictly < 500 pg/mL for this molecule? O=C(O)CNC(=O)c1nc(Cl)c2ccsc2c1O [Compound L]
// result met

// query EPO strictly < 500 pg/mL for this molecule? Cc1cccc(C)c1Oc1ccc2c(C#N)nc(C(=O)NCC(=O)O)c(O)c2c1 [Compound AL]
// result not met

// query EPO strictly < 500 pg/mL for this molecule? N#Cc1nc(C(=O)NCC(=O)O)c(O)c2ccc(Cc3ccccc3)cc12 [Compound AR]
// result not met

###

# Test system: vascular endothelial growth factor (VEGF)
# TEST: VEGF expression in Kelly neuroblastoma cells
# Assay type: cell-based
# Protocol: The effect of compounds of the present invention on expression of cytoprotective and neuroprotective factors in neuroblastoma cells was evaluated as follows. […] Following an overnight incubation, the conditioned media was collected from cell cultures and analyzed for erythropoietin (EPO) and vascular endothelial growth factor (VEGF) expression using a QUANTIKINE immunoassay (R&D Systems, Inc., Minneapolis Minn.) according to the manufacturer's instructions.
PARAMETER MEASURED: VEGF Fold Increase
Numbers only.

Consider the reported VEGF Fold Increase for these compounds:
N#Cc1nc(C(=O)NCC(=O)O)c(O)c2c(Oc3ccccc3)cccc12 4.0
N#Cc1nc(C(=O)NCC(=O)O)c(O)c2cccc(Oc3ccccc3)c12 5.0

Need VEGF Fold Increase for each of these compounds.
1. Cc1nc(C(=O)NCC(=O)O)c(O)c2cc(-c3ccc(F)cc3)sc12
2. O=C(O)CNC(=O)c1nc2cc(Cl)ccc2c(-c2cccc(C(F)(F)F)c2)c1O

// result
1: 5.1; 2: 5.1

###

# System: erythropoietin (EPO)
# TEST: EPO expression in Kelly neuroblastoma cells
# Type: cell-based
Threshold 10: EPO Fold Increase strictly smaller gives T, otherwise F.

Examples from the recorded data:
Cc1nc(C(=O)NCC(=O)O)c(O)c2cc(-c3ccc(F)cc3)sc12 F
O=C(O)CNC(=O)c1nc2ccc(Oc3ccccc3)cc2cc1O T
N#Cc1nc(C(=O)NCC(=O)O)c(O)c2ccc(Oc3ccc(F)cc3)cc12 F
N#Cc1nc(C(=O)NCC(=O)O)c(O)c2c(Oc3ccc(F)cc3)cccc12 F

// query EPO Fold Increase strictly < 10 for this molecule? N#Cc1nc(C(=O)NCC(=O)O)c(O)c2ccc(Cc3ccccc3)cc12
// result F

Values were extracted from patent US9775902B2.
